Test: Toxicity liver stage against HepG2, at 10uM
Assay type: cell-based
Parameters: test concentration 10 uM, cell line HepG2-A16-CD81EGFP
Conditions: human, HepG2-A16-CD81EGFP cells; read-out: INHIBITION
observable: cytotoxicity at 10 µM (%)
Supply the numeric figure in %, leaving out any unit text.

Look up cytotoxicity at 10 µM: CCc1nn(C)c(Cl)c1CN1C[C@@H](NC(=O)N(C)C)[C@H](C(C)C)C1 11.4

Tell me the measured cytotoxicity at 10 µM of O=S(=O)(NCC1CCOc2ccccc2C1)N1CCOCC1 (stereo unspecified) , please. -9.75

What does the record list as cytotoxicity at 10 µM for COCC(=O)N1CCN(C(=O)C2(c3ccc(C)c(OC)c3)CC2)CC1 ? -8.19

What value of cytotoxicity at 10 µM has been reported for the following compound? CCc1nc(CN2CCCN(C(=O)c3cn[nH]c3C)CC2)cs1 -2.97

For the compound CC(C)CC(NC(=O)c1cccs1)c1nc2cccnc2n1C (stereo unspecified) , what cytotoxicity at 10 µM is on record? 7.27

What value of measured cytotoxicity at 10 µM is listed for CN(Cc1csc(-c2cccs2)n1)Cc1cccnc1N ? -1.06

Need cytotoxicity at 10 µM, item CCOc1ccc2ccccc2c1CNCC1CCNCC1 -9.67

If you can, please state the reported cytotoxicity at 10 µM value of O=C(Nc1cn[nH]c1)N(CCO)C1CCc2ccccc21 (stereo unspecified) . -8.74

# input compound: CCOc1ccc(C(F)(F)F)cc1NC(=O)N1CCNC(=O)C1 ; wanted: its cytotoxicity at 10 µM -1.11

Recorded cytotoxicity at 10 µM for Cn1cc(N2CCCC(SCc3nc(C4CC4)no3)C2=O)cn1 (stereo unspecified) , please? 21.8

Could you tell me which cytotoxicity at 10 µM is on file for Cc1ccc(N2C(=O)N[C@@H]3CCN(C(=O)C4CCCC4)[C@@H]3C2=O)cc1 ? 0.199

----------
Assay: Toxicity liver stage against HepG2, at 10uM
Type: cell-based
Parameters: test concentration 10 uM, cell line HepG2-A16-CD81EGFP
Details: human, HepG2-A16-CD81EGFP cells; read-out: INHIBITION
I'd appreciate it if you could supply cytotoxicity at 10 µM values for the items below.
# output: bare number, implied unit %

Name the recorded cytotoxicity at 10 µM for CCN(CCc1nccs1)C(=O)c1ncoc1C . 11.3

Value lookup for cytotoxicity at 10 µM; key = CCn1ccnc1C1CCN(Cc2cccc(C)n2)CC1 -7.93

Entry under review: Cc1cc(N2CCOC(c3ccccn3)C2)nc(N)n1 (stereo unspecified) . Reported cytotoxicity at 10 µM? 4.4

For the compound shown here, CC(C)n1cnnc1CCNCc1cn(CCC(N)=O)c2ccccc12 , give the reported cytotoxicity at 10 µM. -3.81

cytotoxicity at 10 µM for O=S(=O)(Nc1cnn(C2CCOCC2)c1)c1ccc(Br)cc1 ? 5.05

Could you share which cytotoxicity at 10 µM value was measured for Cc1ncsc1CNC(=O)N1CCN(Cc2ccccc2)C[C@H]1C ? -125

----------
Field: cytotoxicity at 10 µM. Provide a value for each of the compounds that follow.
Test: Toxicity liver stage against HepG2, at 10uM
Type: cell-based
Set-up: test concentration 10 uM, cell line HepG2-A16-CD81EGFP
Conditions: human, HepG2-A16-CD81EGFP cells; read-out: INHIBITION
Response body: numeric value in %, unit text excluded.

Need cytotoxicity at 10 µM, item CC(=O)NCCc1ccc(S(=O)(=O)N(C)C(C)C(C)(C)C)s1 (configuration not stated) -3.58

For the compound shown here, N#Cc1ccc(Cn2cncn2)c(F)c1 , give the reported cytotoxicity at 10 µM. -1.49

If you can, please state the reported cytotoxicity at 10 µM value of COc1ccc(F)cc1NC(=O)NCC1(C)COC1 . 6.26

Field request: cytotoxicity at 10 µM | item: N#Cc1ccccc1N1CCC(Nc2nccnc2C#N)CC1 12.9

Can you look up the measured cytotoxicity at 10 µM of COCC1CN(C(=O)C2=CCCCC2)Cc2cnn(CC3CC3)c21 (configuration not stated) for me? 3.46

What does the record list as cytotoxicity at 10 µM for O=C(NCCNc1ccccn1)NC1CCCC1 ? -5.81

Which cytotoxicity at 10 µM is listed for O=S(=O)(NCCc1nnc2ccccn12)c1cccnc1 ? 1.9

----------
Assign cytotoxicity at 10 µM to each entry below.
Test: Toxicity liver stage against HepG2, at 10uM
Assay type: cell-based
Set-up: test concentration 10 uM, cell line HepG2-A16-CD81EGFP
Conditions: human, HepG2-A16-CD81EGFP cells; read-out: INHIBITION
Your answer is read as %, so omit the unit and give the number.

Name the reported cytotoxicity at 10 µM value associated with the compound C=C(C)CN1CCC(NC(=O)c2scnc2C)CC1 -6.35

Suppose we examine the compound O=C(Nc1ccc(Cl)cn1)C1CCCN(Cc2ccccn2)C1 (stereo unspecified) ; what cytotoxicity at 10 µM value has been reported? -10.5

I have this compound here, NC(=O)c1ccc(N2CCN(CCCc3cn[nH]c3)CC2)cc1 , and I need its recorded cytotoxicity at 10 µM. -153

Find the recorded cytotoxicity at 10 µM belonging to Cc1ccc(S(=O)(=O)Nc2ccc(=O)n(C)c2)c(Br)c1 and report it. 0.802

cytotoxicity at 10 µM for Cc1cc(N2CCOC(C)(C(=O)N(C)C)C2)ncn1 (stereo unspecified) ? -0.277

Item under review: Cc1cccnc1CN1CC[C@H](Oc2cccc(F)c2)[C@@](C)(O)C1 . Reported cytotoxicity at 10 µM? -5.77

Looking for the measured cytotoxicity at 10 µM of COc1ccccc1OCC(=O)NS(=O)(=O)c1ccccc1F , can you help? -18

Give its cytotoxicity at 10 µM value. Item: COCCN1CC[C@]2(CN(C(=O)c3cccs3)C[C@H]2C)C1=O 3.47

# cytotoxicity at 10 µM lookup, item Cn1ncnc1CNc1ccccc1C(=O)NC(C)(C)C 3.9

Item O=C(NC[C@H]1C[C@@H]2CCN1C[C@@H]2CN1CCCCC1)Nc1ccsc1 has what recorded cytotoxicity at 10 µM? -1.31

Query: cytotoxicity at 10 µM; subject: Cc1cnn(CC2CCCN2C(=O)c2cc(C)no2)c1 (stereo unspecified) -0.194

----------
Test: Toxicity liver stage against HepG2, at 10uM
Assay type: cell-based
Parameters: test concentration 10 uM, cell line HepG2-A16-CD81EGFP
Details: human, HepG2-A16-CD81EGFP cells; read-out: INHIBITION
Give measured cytotoxicity at 10 µM for each item. Keep answers brief.
Provide only the numeric value, understood in %.

Return reported cytotoxicity at 10 µM; argument: CC(C)CC(C#N)NC(=O)CCNC(=O)C(C)(C)C (stereo unspecified) -3.3

Fill in: cytotoxicity at 10 µM of CS(=O)(=O)C1CCN(S(=O)(=O)c2ccc(F)c(F)c2)CC1 is ___ -10.4

I'd like to know its cytotoxicity at 10 µM. The compound in question is Cc1cccc(CNC(=O)c2cccnc2N)c1 11

Give the measured cytotoxicity at 10 µM of CN1C(=O)[C@@H]2CC[C@H]1CN(C(=O)Nc1ccccc1C(F)(F)F)C2 . -2.53

For the compound OC(CN1CCN(Cc2nnc(C3CC3)o2)CC1)c1ccccc1 (stereo unspecified) , what cytotoxicity at 10 µM is on record? -6.82

Quick one: cytotoxicity at 10 µM of CC(C)Cc1nc(CN2CCN(CC(O)c3ccccc3)CC2)no1 (stereo unspecified) ? -14.4

Param item = COCCCC(=O)Nc1[nH]nc(-c2ccncc2)c1C ; retrieve measured cytotoxicity at 10 µM. -0.158

Need cytotoxicity at 10 µM of O=C(c1ccco1)N1C[C@H]2CCCN(C(=O)c3ccsc3)[C@H]2C1 , thanks. 8.36

What value of cytotoxicity at 10 µM has been reported for the following compound? CC(NC1(CNC(=O)C(C)(C)C#N)CCOCC1)c1ccccc1 (stereo unspecified) 7.35

Consider the compound shown here: CC(=O)NCc1noc2c1CN(Cc1ccsc1)CC2 What is its recorded cytotoxicity at 10 µM? -3.21

Name the reported cytotoxicity at 10 µM value associated with the compound CCNC(=O)CN1CCCN(C(=O)C2CCCc3[nH]ncc32)CC1 (stereo unspecified) 4

----------
Assay: Toxicity liver stage against HepG2, at 10uM
Format: cell-based
Parameters: test concentration 10 uM, cell line HepG2-A16-CD81EGFP
Conditions: human, HepG2-A16-CD81EGFP cells; read-out: INHIBITION
observable: cytotoxicity at 10 µM (%)
Express it in %; write the number only.

Item under review: CCOCCC(=O)N1CCCN(Cc2csc(CC)n2)CC1 . Reported cytotoxicity at 10 µM? 3.9

Looking for the measured cytotoxicity at 10 µM of CCC(C)NC(=O)CCNC(=O)Nc1ccc(-n2cncn2)c(F)c1 (centres undefined) , can you help? -0.22

cytotoxicity at 10 µM lookup needed for Cc1ccc(CC(=O)NCCCNS(C)(=O)=O)cc1 , thanks. 3.1

Item CC(C)Oc1cccc(CNC(=O)N2CCC(N3CC=CC3)C2)c1 (centres undefined) has what recorded cytotoxicity at 10 µM? 0.477

Returns the measured cytotoxicity at 10 µM for the input molecule. Input: CC(C)=CCN1CCc2onc(-c3ccc(F)c(F)c3)c2C1 5.67

Endpoint output: cytotoxicity at 10 µM of CN1C(=O)C2(CCN(c3ncccc3C(=O)O)CC2)c2ccccc21 . Value? -2.25

cytotoxicity at 10 µM lookup needed for Cc1nc(C)c(CN2CCOC(CN(C)c3cccnn3)C2)s1 (centres undefined) , thanks. -7.16

Consider the molecule COC(=O)Cn1c(=O)[nH]c2cn(-c3ccc(Cl)cc3)c(=O)n21 and give its measured cytotoxicity at 10 µM. 23.7

Given the molecule CCCNCc1ccc(-c2ccnc3[nH]ccc23)cc1 , what is its reported cytotoxicity at 10 µM? 66

Using the record for CCOCC(O)CN1CCN(C(=O)c2cc(C)ccc2OC)CC1 (centres undefined) , report its cytotoxicity at 10 µM. 5.35

Look up cytotoxicity at 10 µM: Cc1noc(C)c1CN1CCN(C(=O)C(C(C)C)n2cncn2)CC1 (centres undefined) 1.4

Name the reported cytotoxicity at 10 µM value associated with the molecule O=C(CN1CCN(c2ccc3nncn3n2)CC1)NC1CCCCC1 -12.6

What value of measured cytotoxicity at 10 µM is listed for CC(C)(C)c1nnc(CN2CCCC(Cn3cncn3)C2)o1 (centres undefined) ? -6.31

Which cytotoxicity at 10 µM reading was recorded for the molecule CN(C)c1cc2c(nn1)CCN(C(=O)c1cc3c(s1)CCC3)C2 ? -6.97

So what does the record say about cytotoxicity at 10 µM for O=c1[nH]c(C2CCOC2)nc2ccc(Cl)cc12 (centres undefined) ? -12

cytotoxicity at 10 µM for CN(C)Cc1csc(-c2nccn2Cc2ccsc2)c1 ? -2.47

Which value of cytotoxicity at 10 µM has been reported for CCc1nnc(C2Cc3ccccc3CN2Cc2cc(C)on2)o1 (centres undefined) in the records? -7.77

Which cytotoxicity at 10 µM value is on record for COCCOCC(=O)N1C[C@@H]2CC[C@H]1CN(C1Cc3ccccc3C1)C2 ? -9.04

Given the entry CNC(=O)c1nc(CN2CCOC(CCCC(C)C)C2)no1 (centres undefined) , report its measured cytotoxicity at 10 µM. -2.25

Record request: cytotoxicity at 10 µM value, item COc1ccccc1[C@@H]1CN(Cc2csc(C(C)=O)c2)C[C@H]1C(=O)O -4.75

Query (molecule): CC(NC(=O)N(C)Cc1ccsc1)c1ccc2c(c1)OCO2 (centres undefined) ; field requested: cytotoxicity at 10 µM -10.6

What cytotoxicity at 10 µM value was documented for this molecule, COCCCC1(CO)CCCN(CCS(C)(=O)=O)C1 (centres undefined) ? -16

Consider the molecule shown here: N#Cc1cccc(OCCN2CCCC2C(=O)N2CCSCC2)c1 (centres undefined) What is its recorded cytotoxicity at 10 µM? 9.06

Which value of cytotoxicity at 10 µM has been reported for CCOCCn1nc(C)cc1C(=O)N1CC[C@@](O)(COC)C(C)(C)C1 in the records? -1.66
